# test.system: T1, recombinant canine β NGF (canine, UniProt Q29074 110-229 (pig entry))
# T1 construct: also called canine NGF
# T1 chain: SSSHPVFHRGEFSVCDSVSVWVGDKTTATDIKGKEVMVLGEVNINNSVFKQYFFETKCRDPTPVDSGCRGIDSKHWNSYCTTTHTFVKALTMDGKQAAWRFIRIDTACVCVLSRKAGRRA
# experimental.details: SPR (Biacore), mAb captured on goat anti-mouse IgG Fc, canine NGF injected; Average
pKd: −log10 of the molar value.
assay.endpoint: pKd

[[record]]
binder = "PR-1254972 (antibody, mouse IgG2b, V domains shown, also called 20B10; ML129-20B10.3F4) VH: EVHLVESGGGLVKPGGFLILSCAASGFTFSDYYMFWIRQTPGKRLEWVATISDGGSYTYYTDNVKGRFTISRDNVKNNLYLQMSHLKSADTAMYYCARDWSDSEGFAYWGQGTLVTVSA VL: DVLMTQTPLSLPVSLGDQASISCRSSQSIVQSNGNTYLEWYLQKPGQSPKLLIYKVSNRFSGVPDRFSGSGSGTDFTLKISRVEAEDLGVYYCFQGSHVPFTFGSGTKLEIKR"
assay_endpoint = "pKd"
result = "> 9.50"

